# Test system: C. krusei ATCC 14243
# ASSAY PROTOCOL: MIC determination by AFST-EUCAST standard methodology
# Assay type: cell-based
# SETTINGS: Pichia kudriavzevii, ATCC14243, 24 h, visually and spectrophotometrically, read-out: Antifungal activity, expressed as MIC50
Where a name gives a salt, the structure may show the parent alone.
Quick rule for you: MIC50 under 20 µM gets criterion met, anything else gets criterion not met.

Report whether reported MIC50 is lower than 20 µM (strictly) for N=C(NCCCCCCCCN1CCCCCCCCNC(=N)NC1=O)NCC1CC1 [Compound 15c, tri trifluoroacetate] criterion met

Report whether reported MIC50 is lower than 20 µM (strictly) for C=C(C)CNC(=N)NCCCCCCCCN1CCCCCCCCNC(=N)NC1=O [Compound 15d, tri trifluoroacetate] criterion not met

Report whether reported MIC50 is lower than 20 µM (strictly) for OC(Cn1cncn1)(Cn1cncn1)c1ccc(F)cc1F [F, fluconazole, reference compound] criterion not met

Report whether reported MIC50 is lower than 20 µM (strictly) for C#CCNC(=N)NCCCCCCCCN1CCCCCCCCNC(=N)NC1=O.O=C(O)C(F)(F)F.O=C(O)C(F)(F)F.O=C(O)C(F)(F)F [Compound 15b, tri trifluoroacetate] criterion not met

Report whether reported MIC50 is lower than 20 µM (strictly) for CC(C)=CCNC(=N)NCCCCCCCCN1CCCCCCCCNC(=N)NC1=O [Compound 15e, tri trifluoroacetate] criterion met

###

# Test system: C. albicans 53T
# ASSAY PROTOCOL: MIC determination by AFST-EUCAST standard methodology
# Format: cell-based, Candida albicans
# SETTINGS: 24 h, visually and spectrophotometrically, read-out: Antifungal activity, expressed as MIC50
VALUE KIND: MIC50 (µM)
Quick note: give the figure in µM, leave out the unit.

Please report the measured MIC50 for CC(C)=CCNC(=N)NCCCCCCCCN1CCCCCCCCNC(=N)NC1=O [Compound 13f] 20

Please report the measured MIC50 for C#CCNC(=N)NCCCCCCCCN1CCCCCCCCNC(=N)NC1=O [Compound 13b] 5

Please report the measured MIC50 for CC=CCNC(=N)NCCCCCCCCN1CCCCCCCCNC(=N)NC1=O [Compound 13d] 2.5

Please report the measured MIC50 for N=C(N)NCCCCCCCCNCCCCCCCCNC(=N)NCC1CC1 [Compound 12c] 10

Please report the measured MIC50 for CC(C)=CCNC(=N)NCCCCCCCCNCCCCCCCCNC(=N)N [Compound 12f] 80

Please report the measured MIC50 for N=C(NCCCCCCCCN1CCCCCCCCNC(=N)NC1=O)NCc1ccccc1 [Compound 13a] 2.5

Please report the measured MIC50 for C=C(C)CNC(=N)NCCCCCCCCN1CCCCCCCCNC(=N)NC1=O [Compound 13e] 40

###

# System: C. parapsilosis 64E
# ASSAY PROTOCOL: MIC determination by AFST-EUCAST standard methodology
# Assay type: cell-based
# SETTINGS: Lodderomyces parapsilosis, 24 h, visually and spectrophotometrically, read-out: Antifungal activity, expressed as MIC50
Structures can show the parent of a compound that is named as a salt.
VALUE KIND: MIC50 (µM)
Quick note: give the figure in µM, leave out the unit.

Please report the measured MIC50 for N=C(NCCCCCCCCN1CCCCCCCCNC(=N)NC1=O)NCC1CC1 [Compound 15c, tri trifluoroacetate] 20

Please report the measured MIC50 for N=C(NCCCCCCCCN1CCCCCCCCNC(=N)NC1=O)NCc1ccccc1 [Compound 15a, tri trifluoroacetate] 20

Please report the measured MIC50 for OC(Cn1cncn1)(Cn1cncn1)c1ccc(F)cc1F [F, fluconazole, reference compound] 32

Please report the measured MIC50 for C#CCNC(=N)NCCCCCCCCN1CCCCCCCCNC(=N)NC1=O.O=C(O)C(F)(F)F.O=C(O)C(F)(F)F.O=C(O)C(F)(F)F [Compound 15b, tri trifluoroacetate] 40

###

# Tested on: C. parapsilosis ATCC 34136
# ASSAY PROTOCOL: MIC determination by AFST-EUCAST standard methodology
# Format: cell-based
# SETTINGS: 24 h, visually and spectrophotometrically, read-out: Antifungal activity, expressed as MIC50
I'd be grateful if you could share measured MIC50 for these entries.
Quick note: give the figure in µM, leave out the unit.

Please report the measured MIC50 for N=C(NCCCCCCCCN1CCCCCCCCNC(=N)NC1=O)NCc1ccccc1 [Compound 13a] 80

Please report the measured MIC50 for N=C(N)NCCCCCCCCNCCCCCCCCNC(=N)NCC1CC1 [Compound 12c] 80

Please report the measured MIC50 for CC=CCNC(=N)NCCCCCCCCN1CCCCCCCCNC(=N)NC1=O [Compound 13d] 5

Please report the measured MIC50 for C#CCNC(=N)NCCCCCCCCN1CCCCCCCCNC(=N)NC1=O [Compound 13b] 40

###

I'd be grateful if you could share measured MIC50 for these entries.
# Test system: C. glabrata 70E
# ASSAY PROTOCOL: MIC determination by AFST-EUCAST standard methodology
# Assay type: cell-based
# SETTINGS: Nakaseomyces glabratus; C. glabrata 70E; 24 h, visually and spectrophotometrically; read-out: Antifungal activity, expressed as MIC50
Counter-ions that a name gives are not always drawn.

Give reported MIC50 for C#CCNC(=N)NCCCCCCCCN1CCCCCCCCNC(=N)NC1=O.O=C(O)C(F)(F)F.O=C(O)C(F)(F)F.O=C(O)C(F)(F)F [Compound 15b, tri trifluoroacetate] (C. glabrata 70E) 80 µM

Give reported MIC50 for CC(C)=CCNC(=N)NCCCCCCCCN1CCCCCCCCNC(=N)NC1=O [Compound 15e, tri trifluoroacetate] (C. glabrata 70E) 80 µM

Give reported MIC50 for OC(Cn1cncn1)(Cn1cncn1)c1ccc(F)cc1F [F, fluconazole, reference compound] (C. glabrata 70E) 209 µM

###

I'd be grateful if you could share measured MIC50 for these entries.
# System: C. parapsilosis ATCC 34136
# ASSAY PROTOCOL: MIC determination by AFST-EUCAST standard methodology
# Type: cell-based
# SETTINGS: 24 h, visually and spectrophotometrically, read-out: Antifungal activity, expressed as MIC50

Please report the measured MIC50 for CC(C)=CCNC(=N)NCCCCCCCCNCCCCCCCCNC(=N)N [Compound 12f] >80 µM

Please report the measured MIC50 for C=C(C)CNC(=N)NCCCCCCCCN1CCCCCCCCNC(=N)NC1=O [Compound 13e] >80 µM

Please report the measured MIC50 for CC(C)=CCNC(=N)NCCCCCCCCN1CCCCCCCCNC(=N)NC1=O [Compound 13f] >80 µM
